Experiment: Linezolid concentration in blood plasma of beagle dogs after rectal administration of one suppository
Assay type: in vivo
Conditions: dog, other: rectal, 600 mg, Example 5 particulate dispersion suppository, 600 mg linezolid, Dog 4 (12.5 kg), 1.5 h
OBSERVATION_TYPE: concentration at 1.5 h (ng/mL)
Give bare numbers, in ng/mL.

Lookup: Requested read-out: concentration at 1.5 h. Entry: `CC(=O)NC[C@H]1CN(c2ccc(N3CCOCC3)c(F)c2)C(=O)O1`
Found: 4260

---

Test: Linezolid concentration in blood plasma of beagle dogs after rectal administration of one suppository
Format: in vivo
Details: dog, other: rectal, 20 mg, Example 2 solution suppository, 20 mg linezolid, Dog 2 (13.7 kg), 0.5 h
OBSERVATION_TYPE: concentration at 0.5 h (ng/mL)
Give bare numbers, in ng/mL.

Lookup: Requested read-out: concentration at 0.5 h. Entry: `CC(=O)NC[C@H]1CN(c2ccc(N3CCOCC3)c(F)c2)C(=O)O1`
Found: 136

---

Experiment: Linezolid concentration in blood plasma of beagle dogs after rectal administration of one suppository
Type: in vivo
Conditions: dog, other: rectal, 600 mg, Example 5 particulate dispersion suppository, 600 mg linezolid, Dog 1 (15.0 kg), 0.25 h
OBSERVATION_TYPE: concentration at 0.25 h (ng/mL)
Numbers only, in ng/mL.

Lookup: Requested read-out: concentration at 0.25 h. Entry: `CC(=O)NC[C@H]1CN(c2ccc(N3CCOCC3)c(F)c2)C(=O)O1`
Found: 1110

---

Test: Linezolid concentration in blood plasma of beagle dogs after rectal administration of one suppository
Format: in vivo
Settings: dog, other: rectal, 600 mg, Example 5 particulate dispersion suppository, 600 mg linezolid, Dog 2 (13.4 g), 0.25 h
OBSERVATION_TYPE: concentration at 0.25 h (µg/mL)
Give bare numbers, in µg/mL.

Lookup: Requested read-out: concentration at 0.25 h. Entry: `CC(=O)NC[C@H]1CN(c2ccc(N3CCOCC3)c(F)c2)C(=O)O1`
Found: 0.77

---

Assay: Linezolid concentration in blood plasma of beagle dogs after rectal administration of one suppository
Assay type: in vivo
Details: dog, other: rectal, 600 mg, Example 5 particulate dispersion suppository, 600 mg linezolid, Dog 1 (15.0 kg), 0.5 h
Procedure: One 20 mg linezolid suppository prepared as above was rectally administered to each of four beagle dogs, and the concentration of linezolid in blood plasma of the dogs was determined at different times after administration, as presented in Table 2. One 600 mg linezolid suppository prepared as above was rectally administered to each of four beagle dogs and the concentration of linezolid in blood plasma of the dogs was determined at different times after administration, as presented in Table 3.
OBSERVATION_TYPE: concentration at 0.5 h (ng/mL)
Answers are plain numbers, in ng/mL.

Lookup: Requested read-out: concentration at 0.5 h. Entry: CC(=O)NC[C@H]1CN(c2ccc(N3CCOCC3)c(F)c2)C(=O)O1 [Linezolid]
Found: 2250

---

Assay: Linezolid concentration in blood plasma of beagle dogs after rectal administration of one suppository
Type: in vivo
Conditions: dog, other: rectal, 20 mg, Example 2 solution suppository, 20 mg linezolid, Dog 2 (13.7 kg), 0.25 h
OBSERVATION_TYPE: concentration at 0.25 h (ng/mL)
Numbers only, in ng/mL.

Lookup: Requested read-out: concentration at 0.25 h. Entry: `CC(=O)NC[C@H]1CN(c2ccc(N3CCOCC3)c(F)c2)C(=O)O1`
Found: 54.6
